# Test system: OVCAR-4 ovarian
# run description: NCI tumour cell line growth inhibition, 48 h; in the data active = GI50 below about 0.43 µM; inactive = the rest
Your response should consist of one outcome taken from active, inactive

[Q] Please share the test call associated with O=C1NC(=NCc2ccccc2Br)S/C1=C\c1ccc2ncccc2c1 .
[A] inactive

[Q] Call for entry O=C1Nc2ccccc2/C1=C\c1c[nH]c2ccc(Br)cc12 :
[A] inactive

[Q] Outcome logged for CC(C)(O)/C=C/C(=O)[C@](C)(O)[C@H]1[C@H](O)C[C@@]2(C)[C@@H]3CC=C4[C@@H](C=C(O)C(=O)C4(C)C)[C@]3(C)C(=O)C[C@]12C in this assay:
[A] active

[Q] Name the outcome recorded for C/C(=C1\SC(=NCc2cccs2)NC1=O)c1ccc2ncccc2c1 in the assay.
[A] inactive

[Q] Which outcome was entered for the compound O=c1oc2ccc(Br)cc2c(=O)n1-c1ccc(Br)cc1F in this test?
[A] inactive

[Q] Tell me the assay call for CCN(CC)c1ccc(/C=N/NC(=O)c2ccc(S(C)(=O)=O)cc2)c(O)c1 please.
[A] active

---
[Q] Dear all, I need the recorded test outcome for Clc1nc(Cl)c2ncn(C/C=C\COc3cccc(OC/C=C\Cn4cnc5c(Cl)nc(Cl)nc54)c3)c2n1 , thank you.
[A] inactive

* * *

# System: DU-145 prostate
# run description: NCI tumour cell line growth inhibition, 48 h
readout name: TGI

Example entries and their recorded answers appear below.
[Q] # get_value(readout= TGI, system= DU-145 prostate) for COc1cc(C2S/C(=C/c3ccccc3)C(=O)N2c2cccc(Cl)c2)cc(OC)c1OC (stereo not given)
[A] 86.8 µM

[Q] Notebook: pull reported TGI for DU-145 prostate, entry CC(C)(C)C(=O)C(C(=O)c1ccccc1)C(=O)C(C)(C)C
[A] > 100 µM

[Q] Form: Entry = COC(=O)c1cc(C)n(CN(Cn2nc(C(=O)OC)cc2C)c2ccccc2)n1 | System = DU-145 prostate | TGI = ____
[A] > 100 µM

[Q] What value of TGI on DU-145 prostate does CCN(CC)CCCNc1[nH]ncc2cc3c(nc4ccc(OC)cc43)c(C)c12 have?
[A] 15.9 µM

[Q] Any idea what TGI came out for O=S(=O)(O)c1cc(N=Nc2cccc3ccccc23)c(O)c2ncccc12 on DU-145 prostate?
[A] > 100 µM

[Q] # value lookup — system DU-145 prostate, readout TGI, item OC/C=C/[C@H](OCc1ccccc1)[C@H](/C=C/CO)OCc1ccccc1
[A] > 100 µM

Others:
[Q] Give recorded TGI with DU-145 prostate for the following compound: O=C(/C=C/c1cccs1)c1ccc(Cl)cc1Cl
[A] 43.7 µM

[Q] Entry C[C@]12CCC3c4ccc(O)cc4CC[C@H]3C1CC(=O)NC2=O (stereo not given in full) , system DU-145 prostate: what TGI was measured?
[A] > 10 µM

[Q] Enter reported TGI observed with DU-145 prostate for NC(Cc1ccc(O)c(O)c1)P(=O)(O)O (stereo not given)
[A] > 100 µM

[Q] // map CC(=O)OCC1OC(n2c3c(cc(C#N)c2=O)CCCCCC3)C(OC(C)=O)C(OC(C)=O)C1OC(C)=O (stereo not given) to recorded TGI (system: DU-145 prostate)
[A] > 100 µM

* * *

# System: KM12 colon
# run description: NCI tumour cell line growth inhibition, 48 h
molecules and their reported TGI

[Q] Look at this molecule and give its reported TGI. O=C(/C=C/c1ccc(Cl)cc1)c1ccc(Cl)c(Cl)c1
[A] > 100 µM

More entries:
[Q] Fill in the blank: the reported TGI of Nc1ccc(Cc2ccc(N=Cc3ccc(OCc4cccc(COc5ccc(C=Nc6ccc(Cc7ccc(N)cc7)cc6)cc5)n4)cc3)cc2)cc1 is ____.
[A] > 100 µM

[Q] Endpoint output: TGI of CCc1nnc(CC)n1N1C(=O)CCC1=O . Value?
[A] > 100 µM

[Q] Form field: reported TGI of CCN(CC)c1ccc(/C=N/NC(=O)c2ccc(S(C)(=O)=O)cc2)c(O)c1
[A] > 100 µM

[Q] Please look up its TGI: c1ccc(Cc2cc(-c3ccccc3)n[nH]2)cc1
[A] 28.8 µM
